B1: Arginine-glutamic acid dipeptide repeats protein, residues 502 to 543; numbered along this chain, Q9P2R6 (parent)
chain: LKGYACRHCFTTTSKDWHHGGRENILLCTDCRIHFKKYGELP

Variants of: B1
test_method_notes: abundance fitness (aPCA) (normalised: wild type 0, dead -1); higher = more abundant; growth selection in yeast, the domain comes from the species named
experimental_parameters: Homo sapiens
# label = y if abundance fitness >= -0.3 else n

Study these solved cases before continuing.
mutation_id: K15T
class_label: y
--
mutation_id: D16S
class_label: y
--
mutation_id: T13L
class_label: y
--
mutation_id: D30W
class_label: n
--
mutation_id: I25C
class_label: y

[ask] Given `T29A` , state whether its abundance fitness is at least -0.3.
[reply] y

[ask] Has `W17Q` a recorded abundance fitness greater than or equal to -0.3?
[reply] y
